# System: HMOX1
# TEST NAME: HMOX1 Protein Assay (immunostaining of HO-1 in NHLF cells, GE InCell 1000)
# Type: cell-based
# MEASUREMENT PARAMETERS: Homo sapiens, fold change above DMSO treated cells, 5 μM compound, 16 h
EXPERIMENTAL READOUT: fold induction at 5 µM
Just the number, please.

# lookup: fold induction at 5 µM of Cn1c(Nc2nc3ccc(Cl)cc3s2)nc2cc(C(=O)NCC(=O)N3CCOCC3)ccc21 32.2

# lookup: fold induction at 5 µM of CC(=O)NCCNC(=O)c1ccc2c(c1)nc(Nc1nc3ccc(OC(F)(F)F)cc3s1)n2C 25.9

# lookup: fold induction at 5 µM of COC(=O)c1ccc2c(c1)nc(Nc1nc3cc(F)c(F)cc3s1)n2C 11.7

# lookup: fold induction at 5 µM of C[C@H](O)C(=O)NCCNC(=O)c1ccc2c(c1)nc(Nc1nc3ccc(OC(F)(F)F)cc3s1)n2C 34.3

# lookup: fold induction at 5 µM of CNC(=O)c1ccc2c(c1)nc(Nc1nc3cc(OC(F)(F)F)ccc3s1)n2C 1.5

# lookup: fold induction at 5 µM of Cn1c(Nc2nc3ccc(OC(F)(F)F)cc3s2)nc2ccc(C(=O)NCCOCCO)cc21 61.1

# lookup: fold induction at 5 µM of Cn1c(Nc2nc3ccc(OC(F)(F)F)cc3s2)nc2cc(C(=O)NC3CCN(S(C)(=O)=O)CC3)ccc21 8.1

# lookup: fold induction at 5 µM of Cn1c(Nc2nc3ccc(OC(F)(F)F)cc3s2)nc2cc(C(=O)NCCCS(C)(=O)=O)ccc21 26.3

# lookup: fold induction at 5 µM of Cn1c(Nc2nc3ccc(OC(F)(F)F)cc3s2)nc2cc(C(=O)NCC(=O)N(CCO)CCO)ccc21 24.9

----------
# Tested on: HMOX1
# TEST NAME: HMOX1 Protein Assay (immunostaining of HO-1 in NHLF cells, GE InCell 1000)
# Assay type: cell-based
# MEASUREMENT PARAMETERS: Homo sapiens, fold change above DMSO treated cells, 5 μM compound, 16 h
Kindly state fold induction at 5 µM for each of the entries shown.
Just the number, please.

# lookup: fold induction at 5 µM of Cn1c(Nc2nc3ccc(OC(F)(F)F)cc3s2)nc2cc(C(=O)NC3CCS(=O)(=O)C3)ccc21 (centres unmarked) [Example 121] 29.6

# lookup: fold induction at 5 µM of COCCn1c(Nc2nc3ccc(Cl)cc3s2)nc2cc(C(=O)NCC(=O)N3CCC(O)CC3)ccc21 [Example 438] 25.9

# lookup: fold induction at 5 µM of Cn1c(Nc2nc3cc(F)c(F)cc3s2)nc2cc(C(=O)O)ccc21 [Example 34] 15.4

# lookup: fold induction at 5 µM of Cn1c(Nc2nc3ccc(OC(F)(F)F)cc3s2)nc2cc(C(=O)NCCC3CCCCO3)ccc21 (centres unmarked) [Example 263] 19.9

# lookup: fold induction at 5 µM of COCCn1c(Nc2nc3ccc(Cl)cc3s2)nc2cc(C(=O)NCC3CCN(CCO)CC3)ccc21 [Example 304] 24.7

# lookup: fold induction at 5 µM of Cn1c(Nc2nc3ccc(OC(F)(F)F)cc3s2)nc2cc(C(=O)NCCOCCN)ccc21 [Example 268] 28.4

# lookup: fold induction at 5 µM of CN1CC[C@H](NC(=O)c2ccc3c(c2)nc(Nc2nc4ccc(Cl)cc4s2)n3C)C1 [Example 317] 16.3

# lookup: fold induction at 5 µM of Cn1c(Nc2nc3ccc(C(F)(F)F)cc3s2)nc2cc(C(=O)NCCOCCO)ccc21 [Example 236] 45.7

----------
# Tested on: HMOX1
# TEST NAME: HMOX1 Protein Assay (immunostaining of HO-1 in NHLF cells, GE InCell 1000)
# Assay type: cell-based
# MEASUREMENT PARAMETERS: Homo sapiens, fold change above DMSO treated cells, 5 μM compound, 16 h
For each record, check the reported fold induction at 5 µM: if it is below 20 write YES, else write NO.

For CCn1c(Nc2nc3ccc(Cl)cc3s2)nc2cc(C(=O)NCCF)ccc21 , is the recorded fold induction at 5 µM below the cut-off of 20? NO

For Cn1c(Nc2nc3ccc(OC(F)(F)F)cc3s2)nc2cc(C(=O)NCCCCO)ccc21 , is the recorded fold induction at 5 µM below the cut-off of 20? NO

For Cn1c(Nc2nc3ccc(C(F)(F)F)cc3s2)nc2cc(C(=O)NCCOCCF)ccc21 , is the recorded fold induction at 5 µM below the cut-off of 20? NO

For CNC(=O)c1ccc2c(c1)nc(Nc1nc3ccc(OC(F)(F)F)cc3s1)n2C , is the recorded fold induction at 5 µM below the cut-off of 20? YES

For COc1ccc(CNC(=O)c2ccc3c(c2)nc(Nc2nc4ccc(OC(F)(F)F)cc4s2)n3C)cc1O , is the recorded fold induction at 5 µM below the cut-off of 20? NO
